System: MS2 coat protein
PROCEDURE DETAILS: apparent KD of MS2 coat protein; designed switch direction (-1 OFF switch, 1 ON switch): 1; higher = weaker reporter binding
RUN PARAMETERS: input ligand: FMN 200 uM
READOUT TYPE: apparent KD of MS2 coat protein

GUAGCAUACCGAGGAUAUUCAUAUUAUACAUGAGGAUCACCCAUGUAAGGUCGAUUACGACCUUGGGAGAAGGCGGAAUGCUAC [Xeonanis - 20 Mod34] (Eterna round: R96, puzzle: Same State NG 2)	0.0203 µM
UCGAGCGUACUUGCAGACAUGAGGAUCACCCAUGUAAAUGGGAAGGAUAUGGUACCGUUUCGGUACCAGAAGGUCCUAAGUGAU [salish99_SSNG3_r04_302] (Eterna round: R96, puzzle: Same State NG 3)	0.574 µM
GGGAGAGGCGCAGGAUAUGGUGAGGAUCACCCACUAGAAGGGUGCACAUGAGAAUCGAACAUGAGGAUCACCCAUGUUCUGAGC (Eterna round: R96, puzzle: Same State NG 1)	0.56 µM
GAGUGGCAGUAAGGAUAUAUAGUGAUAAUCACAGUAGAAGGUACUGACAUGAGGAUCACCCAUGUAGGACUAAUCCAGAGAGAG [Parity 42 - Jieux - Same State NG 1] (Eterna round: R96, puzzle: Same State NG 1)	0.0736 µM
CUGCUCGUGUGAGGAUAUGCCGCCGUUUCGGCUGCAGAAGGUGCUACGUUACAUGAGGAUCACCCAUGUCUCUGUUGUUUCGUU [salish99_SSNG1_r04_947] (Eterna round: R96, puzzle: Same State NG 1)	0.0202 µM

====

List of apparent KD of MS2 coat protein values.
System: MS2 coat protein
PROCEDURE DETAILS: apparent KD of MS2 coat protein; designed switch direction (-1 OFF switch, 1 ON switch): 1; higher = weaker reporter binding
RUN PARAMETERS: input ligand: microRNA oligo, concentration not stated
READOUT TYPE: apparent KD of MS2 coat protein (nM)

AAUAAACAUGAGGAUCACCCAUGUAAUAUAAAUGGAGGAUAUGCAAUUAUUAAUUAUUAAGUAGAAGGUCGAAUAA [Lollin - Epsilon 1] (Eterna round: R96, puzzle: Same State 1)	67.5
GCUCGAUGAGCGGUUUACAUGAGGAUCACCCAUGUAAAUGGGCAGGAUAUUUACGUGCUUUGUGUAGAGAAGGGCCCAUCGAGC [SameState NG3 #75] (Eterna round: R96, puzzle: Same State NG 3)	47.4
GGUGCAAUAAACGCCUACAUGAGGAUCACCCAUGUAUGUAGGCAGGAUAUCGUAUGCAAAGCAUACGAGAAGGGCUAUAGUACC [Mat - Same State NG 3 - JL Mod - D45] (Eterna round: R96, puzzle: Same State NG 3)	124
UUGAAGAAUUAAGGAUAUUGAGUACAUAUGUUUAACAUGAGGAUCACCCAUGUGGGUUGCGGUAUCGAGAAGGUAAAUUACUAG [JL SSNG2 1.45] (Eterna round: R96, puzzle: Same State NG 2)	76.1

====

Tested on: MS2 coat protein
PROCEDURE DETAILS: apparent KD of MS2 coat protein; higher = weaker reporter binding
RUN PARAMETERS: Eterna round: R107; input ligand: arginine 13.2 mM
Please use YES whenever apparent KD of MS2 coat protein is not below 30 nM, and NO whenever it is.

AUGCCUAGUGGAAGGAGCGAGGGUCUUCUCAACAUGAGGAUCACCCAUGUUCUUUUACACCCUCAGGUAGGUCGCCAUUGGGACA [Biraanve]	NO
CGGACAUGAGGAUCACCCAUGUACACUGAAGGAGCGUCGAGAACGACAGGUAGGUCGCAGGUUGAGGAAGGUGAUGCUCAAGAAG [Exclusion Arginine A GF4]	NO
AACAUGAGGAUCACCCAUGUGUCCUCGAAACGAGGACCGGUACGGCCGCCACUCGAAAGGUGUUGACGAAAAGUCAGCACCAAAA [Mat - Exclusion - Trytophan A - D15]	YES
ACAUUUAACUGAAGGAGCGUGAUUAACAUGAGGAUCACCCAUGUAACUUAGAUGCUUAUAUCACAGGUAGGUCGCAGACUAAUGA [JR_ExcArginiB_Sub011]	NO
UGAGAGACCAGAAGGAGCGACAUGAGGAUCACCCAUGUCUCCCGUUAUGGGAGUUCUUUAGGUCAGGUAGGUCGCUGGUCUCUCA [#1 Exclusion - Arginine B Attempt #8 (Inspired by Omei)]	YES
ACAAGAGGUGGAAGGAGCGGGAGACAUGAGGAUCACCCAUGUGAAGUUUCGAGAGGAUCAUCCCAGGUAGGUCGCCAUGUCGAAA [ojjomullin]	YES
AGCUCGCAAUCCUCAGCGUCAAAGACGCGUCGAGGACCGGUACGGCCGCCACUCGACAAGAGGAUCACCCUUGUCUAAGCGAGCA [TrypAX 5 #SwitchBubble #AlternativeMS2 #MS2Late #CuTurnoff]	YES
UCUUGAGUUUCGGAUACCAGUGUUGUCGAUACAUGAGGAUCACCCAUGUUAGAGGAUGUACACCCUUGGCAGCCGGCUGUGGCGG [zszmullin]	NO
UACCUUAACACGGCCGCCACUCUCUAAUAGGAUCAUGGUACCGCACAUGAGGAUCACCCAUGUUUGAGGACCGGGUGUUAUGAAG [theeternabot_sameState_MS2_Trp_B_24]	NO
CCAUAAGUACCGGUCCUCAGAUCCUCAUGACGAGGACCGGUACGGCCGCCACUCGAAACAUGAGGAUCACCCAUGUAAUAAUACC [Brourdmod18]	NO
AGCCCUGUGCUAGAUACCAGCUACAUGAGGAUCACCCAUGUGCGUCAGAAAUGACUGUGUAGCCCUUGGCAGCUAAAUGCAUGUA [Exclusion - Theophylline B (Freestyle 7)]	NO

====

Test system: MS2 coat protein
PROCEDURE DETAILS: apparent KD of MS2 coat protein; designed switch direction (-1 OFF switch, 1 ON switch): -1; higher = weaker reporter binding
RUN PARAMETERS: input ligand: FMN 200 uM
Below, each entry is listed alongside its reported apparent KD of MS2 coat protein.
READOUT TYPE: apparent KD of MS2 coat protein (nM)

UACAUGAGGAUCACCCAUGUUUUGUCGUGUAUGGUAUUUAUCUAGGAUAUCAGGUUAUUUAUUUAUGAGAAGGAGAAUAUUAAU [JMF's solution 25] (Eterna round: R96, puzzle: Exclusion NG 3)	33.3
AGCGAAUGAGGAUAUUAUCUCACCUACAUGAGGAUCACCCAUGUGGUCGCACCUGGCGAGUGAGAAGGCAUUCGGA [Eternabot (Original) Solution 41] (Eterna round: R97, puzzle: Exclusion 5)	112
UUUUUCUCAGGAUAUACAUGAGGAUCACCCAUGUAUAUUAAUGGUAAUACAUGGGAAUGUAGAAGGGAGCUCAU [Omei Ex3 Pseudoloop 15] (Eterna round: R97, puzzle: Exclusion 3)	112
AGAUCACAUGAGGAUCACCCAUGUCAGGAUAUCGUCACUGGAGCUUCGGCUCCAGUGACGAGAAGGGACAUAAU [E1/2-A1] (Eterna round: R97, puzzle: Exclusion 1)	161
UGUGUGUGACAGGAUAUGCAGGUAAUGAGACGGGUAGAAGGGUCUACAUGAGGAUCACCCAUGUGGCCGGUUGG [Ex6 #62] (Eterna round: R97, puzzle: Exclusion 6)	17.7

====

System: MS2 coat protein
PROCEDURE DETAILS: apparent KD of MS2 coat protein; designed switch direction (-1 OFF switch, 1 ON switch): 1; higher = weaker reporter binding
RUN PARAMETERS: input ligand: microRNA oligo, concentration not stated
Collected apparent KD of MS2 coat protein values appear next to each entry.
READOUT TYPE: apparent KD of MS2 coat protein (nM)

UGUUGUAUUACAGGAUAUCUAGUAUUUUUAUUGAGAGAAGGGUAUUCACAUGAGGAUCACCCAUGUAUAUACGAGGAAGUUGUG [JMF's solution 55] (Eterna round: R96, puzzle: Same State NG 1)	34.8
AAUUAAGAUCAAGGAUAUCACGUCGUUUAGACGUGAGAAGGUGAUCAUAACAUGAGGAUCACCCAUGUAUUACAUGAAUUAAUU [SSNG1/2-B3] (Eterna round: R96, puzzle: Same State NG 1)	404
AACAAAUACACAGGAUAUACAGCGGCAGCCACUGUAGAAGGGUGGGCGGGUUCCAACAUGAGGAUCACCCAUGUACCCAAUAAA [Gerace] (Eterna round: R96, puzzle: Same State NG 1)	234

====

Test system: MS2 coat protein
PROCEDURE DETAILS: apparent KD of MS2 coat protein, switch ON state; designed switch direction (-1 OFF switch, 1 ON switch): -1; higher = weaker reporter binding
RUN PARAMETERS: FMN input: 0 or 200 uM; Eterna round: R93 (includes R88 designs)
In this section, each of the sequences is paired with its reported apparent KD of MS2 coat protein.
READOUT TYPE: apparent KD of MS2 coat protein (nM)

AAAAAGGCAGGAUAUACAUGAGGAUCACCCAUGUGCAAAAAAAAAAAAAAAAAAACAUGUAGAAGGGCCGAAAA [Skynet (1?)]	45.2
AACAGUACAGGAUAUACAUGAGGAUCACCCAUGUAAAAAGGGAGUGGCGUACCACAAAGUAGAAGGGUACUGGA [Moding Maslow revisited (73) 7]	36.9
AAAAAGUCAGGAUAUACAUGAGGAUCACCCAUGUGAAAGAACGAUUAACGAAAAGCAAGUAGAAGGGACAAAAA [Ruby 79]	22.1
AAUACACAUGAGGAUCACCCAUGUAAGGAUAUCGAAAAAAAAAUAAACAAAAAACAAACGAGAAGGUACAAAAA [Exclusion 1 design 3]	33.2
UUAACACAUGAGGAUCACCCAUGUUAGGAUAUUGUGGUAGGAACAACUGGGAAACGCACAAGAAGGGACACACA [EX1 Malc#18 Mod 18 - Jieux - Exclusion 1]	29.2
AGCUAGUCAGGAUAUACGAAAAUGUCAGAAGACGUAAGGGAACAUGAGGAUCACCCAUGUAGAAGGGACUAGCA [Diamond 41]	30.7
